System: MOLT-4 leukemia
methodNotes: NCI tumour cell line growth inhibition, 48 h
# TGI per entry

Solved entries:
Data request: Specify measured TGI for CCOC(=O)c1nnc2c(C#N)c(-c3ccccc3)c(C)n2c1N .
Data returned: > 100 µM

Data request: Specify measured TGI for c1ccc2c(c1)OC(N1CCCC1)c1cnc(N3CCOCC3)nc1-2 (configuration not stated) .
Data returned: > 100 µM

Data request: Specify measured TGI for O=[N+]([O-])c1cc(Cl)cnc1Br .
Data returned: 4.52 µM

Data request: Specify measured TGI for Cc1ccc(-c2nc3nc(-c4ccccc4)nc(N4CCNCC4)c3o2)cc1 .
Data returned: 0.573 µM

Data request: Specify measured TGI for C[C@@H]1CC[C@@]2(OC1)O[C@H]1C[C@H]3[C@@H]4CC[C@H]5C[C@@H](OC6OC(CO)C(OC7OC(CO)C(O)C(OC8OCC(O)C(O)C8O)C7OC7OC(CO)C(O)C(O)C7O)C(O)C6O)[C@H](O)C[C@]5(C)[C@H]4CC[C@]3(C)[C@H]1[C@@H]2C (some centres not stated) .
Data returned: 31.1 µM

The record that follows has no TGI shown yet.
Data request: Specify measured TGI for Nc1c(C(=O)c2cccc(C#CCO)c2)cnn1-c1ccc(F)cc1 .
Data returned: > 25 µM

###

Test system: HCT-15 colon
methodNotes: NCI tumour cell line growth inhibition, 48 h; in the data active = GI50 below about 0.43 µM; inactive = the rest
Field 'call' accepts TRUE (active), FALSE (inactive)

Study these solved cases before continuing.
Data request: Short answer needed: outcome of this test for Nc1ccccc1C#C/C=C\C#Cc1cccc(O)c1 ?
Data returned: FALSE

Data request: Short answer needed: outcome of this test for O=[N+]([O-])c1ccc(N=Nc2ccc(O)c3ccccc23)cc1 ?
Data returned: FALSE

Data request: Short answer needed: outcome of this test for COc1cc(OC)c2[nH]c3c(O)c(-c4c(C)cc5c([nH]c6c(OC)cc(OC)cc65)c4O)c(C)cc3c2c1 ?
Data returned: FALSE

New cases:
Data request: Short answer needed: outcome of this test for Cc1nn(-c2ccc(Cl)cc2)c2nc3c(nc12)C(=O)C(=O)c1ccccc1-3 ?
Data returned: FALSE

Data request: Short answer needed: outcome of this test for C=C1CC[C@@H]2[C@](C)(COC(C)=O)[C@H](OC(C)=O)CC[C@@]2(C)[C@@H]1CC(Nc1ccc(S(=O)(=O)Nc2ccc(Cl)nn2)cc1)C1=CCOC1=O (some centres undefined) ?
Data returned: FALSE

Data request: Short answer needed: outcome of this test for COc1ccc(C(=O)/C=C/c2cccc(Nc3ccnc4cc(Cl)ccc34)c2)cc1 ?
Data returned: FALSE

Data request: Short answer needed: outcome of this test for Cc1ccc(-c2nc3nc(-c4ccccc4)nc(N4CCNCC4)c3o2)cc1 ?
Data returned: TRUE

Data request: Short answer needed: outcome of this test for O1[As]2O[As]3O[As]1O[As](O2)O3 ?
Data returned: FALSE

Data request: Short answer needed: outcome of this test for COc1cnc2c(c1)C(=O)c1c-2n(CCCNC2=NCCS2)c(=O)c2cc(Cl)ccc12 ?
Data returned: FALSE

###

Test system: NCI-H522 lung
methodNotes: NCI tumour cell line growth inhibition, 48 h
# log10(TGI) per entry
All values: base-10 log of TGI in µM.

Solved entries:
Data request: Specify measured log10(TGI) for CC(C)NC(=O)OCc1c2c(n(C)c1COC(=O)NC(C)C)-c1ccccc1CC2 .
Data returned: 1.26

Data request: Specify measured log10(TGI) for COc1cccc(C2c3cc4c(cc3OC(Nc3ccccc3)C2C)OCO4)c1OC (stereo not drawn) .
Data returned: 1.98

Data request: Specify measured log10(TGI) for COc1ccccc1CNCCCN1C(=O)c2ccc3c4c(ccc(c24)C1=O)C(=O)N(CCCN)C3=O .
Data returned: 0.47

Data request: Specify measured log10(TGI) for O=C(N/N=C/c1cc(Br)cc(Br)c1[O-])c1ccccc1O.O=C(N/N=C/c1cc(Br)cc(Br)c1[O-])c1ccccc1O.[Co+2] .
Data returned: 0.40

Data request: Specify measured log10(TGI) for COc1ccc(/C=C(\C(=O)NCc2cccnc2)S(=O)(=O)c2ccccc2)cc1OC .
Data returned: 0.66

New cases:
Data request: Specify measured log10(TGI) for CCc1cccc(C)c1NC(=O)C1=C(C)NC(C)=C(C(=O)Nc2c(C)cccc2CC)C1c1ccc2c(c1)OCO2 .
Data returned: 1.48

Data request: Specify measured log10(TGI) for C[C@@H]1CC[C@@]2(OC1)O[C@H]1C[C@H]3[C@@H]4CC[C@H]5C[C@@H](OC6OC(CO)C(OC7OC(CO)C(O)C(OC8OCC(O)C(O)C8O)C7OC7OC(CO)C(O)C(O)C7O)C(O)C6O)[C@H](O)C[C@]5(C)[C@H]4CC[C@]3(C)[C@H]1[C@@H]2C (stereo partly drawn) .
Data returned: 0.31

Data request: Specify measured log10(TGI) for O=[N+]([O-])c1ccc(NNN=Nc2ccc(-c3nc4ccccc4s3)cc2)c([N+](=O)[O-])c1 .
Data returned: 1.85

Data request: Specify measured log10(TGI) for CCOc1cc2c(c(OCC)c1O)CC[C@@H]1[C@@H]2CC[C@]2(C)[C@@H](O)CC[C@@H]12 .
Data returned: 1.36

These entries and their values trace back to PubChem BioAssay (NCI).
